target: DNA topoisomerase 2-alpha (Homo sapiens, UniProt P11388); test: Inhibition of human topoisomerase 2alpha assessed as reduction in enzyme-mediated kinetoplast DNA decatenation at 100 uM incubated for 30 mins by agarose gel electrophoresis method
Sequence (P11388 whole entry): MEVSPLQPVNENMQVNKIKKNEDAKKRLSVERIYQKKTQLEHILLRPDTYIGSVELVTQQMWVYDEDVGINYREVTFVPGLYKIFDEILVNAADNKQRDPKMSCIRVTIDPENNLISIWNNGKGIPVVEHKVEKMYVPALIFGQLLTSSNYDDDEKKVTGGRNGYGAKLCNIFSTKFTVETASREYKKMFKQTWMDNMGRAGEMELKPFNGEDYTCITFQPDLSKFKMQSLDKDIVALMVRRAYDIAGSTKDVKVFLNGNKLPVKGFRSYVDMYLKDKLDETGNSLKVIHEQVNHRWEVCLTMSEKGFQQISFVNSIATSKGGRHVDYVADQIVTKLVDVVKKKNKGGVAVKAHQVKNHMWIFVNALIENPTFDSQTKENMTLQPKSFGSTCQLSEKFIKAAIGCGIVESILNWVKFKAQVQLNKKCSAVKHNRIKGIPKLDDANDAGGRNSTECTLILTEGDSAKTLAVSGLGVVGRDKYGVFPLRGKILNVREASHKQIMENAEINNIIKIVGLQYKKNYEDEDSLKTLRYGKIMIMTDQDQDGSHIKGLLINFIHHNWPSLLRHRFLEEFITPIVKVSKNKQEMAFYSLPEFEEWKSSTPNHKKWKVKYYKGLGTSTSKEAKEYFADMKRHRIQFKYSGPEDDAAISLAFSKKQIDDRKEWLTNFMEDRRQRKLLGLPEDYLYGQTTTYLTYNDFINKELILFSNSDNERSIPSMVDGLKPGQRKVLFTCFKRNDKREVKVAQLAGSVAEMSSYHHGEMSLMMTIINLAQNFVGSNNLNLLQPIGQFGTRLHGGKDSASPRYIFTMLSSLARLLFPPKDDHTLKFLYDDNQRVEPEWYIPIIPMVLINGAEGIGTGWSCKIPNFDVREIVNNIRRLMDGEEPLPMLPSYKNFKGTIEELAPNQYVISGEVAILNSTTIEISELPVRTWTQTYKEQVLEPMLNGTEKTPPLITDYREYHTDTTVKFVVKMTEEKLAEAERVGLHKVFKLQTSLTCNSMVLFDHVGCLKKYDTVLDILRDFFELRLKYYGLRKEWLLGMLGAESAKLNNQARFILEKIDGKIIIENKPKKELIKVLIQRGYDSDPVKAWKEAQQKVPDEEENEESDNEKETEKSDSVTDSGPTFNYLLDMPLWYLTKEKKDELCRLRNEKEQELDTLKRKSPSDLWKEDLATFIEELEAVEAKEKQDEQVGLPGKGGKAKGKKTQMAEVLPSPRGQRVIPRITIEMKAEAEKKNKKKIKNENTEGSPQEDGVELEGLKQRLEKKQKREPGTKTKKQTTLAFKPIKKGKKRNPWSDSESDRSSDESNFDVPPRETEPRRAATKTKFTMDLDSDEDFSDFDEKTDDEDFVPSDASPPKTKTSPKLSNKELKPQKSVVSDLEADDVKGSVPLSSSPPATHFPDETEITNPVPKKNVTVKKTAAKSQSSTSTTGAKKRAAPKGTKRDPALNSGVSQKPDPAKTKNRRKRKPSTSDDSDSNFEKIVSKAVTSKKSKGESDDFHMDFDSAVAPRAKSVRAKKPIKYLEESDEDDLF
Active and inactive are the calls of the source. The calls are words filed in the database; no cut-off is given here.

{"Line Notation": "COc1ccc(-c2nc3ccc(-c4ccccc4)cn3c2NC(C)(C)C)cc1", "inhibition": "Active"}
{"Line Notation": "CC(C)(C)Nc1c(-c2ccc(-c3ccc(F)cc3)cc2)nc2cnccn12", "inhibition": "inactive"}
{"Line Notation": "CC(C)(C)Nc1c(-c2ccc(Cl)cc2)nc2ccc(-c3ccc(F)cc3)cn12", "inhibition": "Active"}
{"Line Notation": "COc1ccc(-c2ccc(-c3nc4ccccn4c3NC(C)(C)C)cc2)cc1", "inhibition": "inactive"}
{"Line Notation": "CC(C)(C)Nc1c(-c2ccc(Cl)cc2)nc2ccc(-c3ccccc3)cn12", "inhibition": "Active"}
{"Line Notation": "COc1ccc(-c2ccc3nc(-c4ccc(Cl)cc4)c(NC(C)(C)C)n3c2)cc1", "inhibition": "Active"}
{"Line Notation": "Cc1ccc(-c2ccc3nc(-c4ccc(Cl)cc4)c(NC(C)(C)C)n3c2)cc1", "inhibition": "Active"}
{"Line Notation": "CC(C)(C)Nc1c(-c2ccc(-c3ccc(Cl)cc3)cc2)nc2ccccn12", "inhibition": "inactive"}
{"Line Notation": "CC(C)(C)Nc1c(-c2ccc(-c3ccccc3)cc2)nc2cnccn12", "inhibition": "Active"}
{"Line Notation": "CC(=O)c1ccc(-c2ccc(-c3nc4cnccn4c3NC(C)(C)C)cc2)cc1", "inhibition": "Active"}
